Tested on: 3T3-L1
Assay: Inhibition of fat accumulation in mouse 3T3L1 cells after 7 days
Assay type: functional, cell-based
Details: 3T3-L1, 168 h
observedProperty: IC50 (µM)
State just the number; it will be interpreted in µM.

Which IC50 value belongs to CC[C@H](C)[C@H]1NC(=O)[C@@H]([C@H](O)C(C)C)NC(=O)[C@@H](Cc2cn(CCOCCOCCNC(=O)CCCC[C@@H]3SC[C@@H]4NC(=O)N[C@@H]43)nn2)N(C)C(=O)[C@H](C)N(C)C(=O)[C@H](CC(C)C)NC(=O)[C@H](CC(C)C)N(C)C(=O)[C@H](C)N(C)C1=O ? 46

Which IC50 value belongs to CC[C@H](C)[C@H]1NC(=O)[C@@H]([C@@H](C)O)NC(=O)[C@@H](C)N(C)C(=O)[C@H](C)N(C)C(=O)[C@H](CC(C)C)NC(=O)[C@H](CC(C)C)N(C)C(=O)[C@H](C)N(C)C1=O ? 3.1

Which IC50 value belongs to CC[C@H](C)[C@H]1NC(=O)[C@@H](CO)NC(=O)[C@@H](C)N(C)C(=O)[C@H](C)N(C)C(=O)[C@H](CC(C)C)NC(=O)[C@H](CC(C)C)N(C)C(=O)[C@H](C)N(C)C1=O ? 12

Which IC50 value belongs to C#CC[C@@H]1C(=O)N[C@H]([C@H](O)C(C)C)C(=O)N[C@H]([C@@H](C)CC)C(=O)N(C)[C@@H](C)C(=O)N(C)[C@@H](CC(C)C)C(=O)N[C@@H](CC(C)C)C(=O)N(C)[C@@H](C)C(=O)N1C ? 0.019
